assay-protocol: The drug is tested on Z-002 corresponding to rabbit gut metagenome with ENA study accession number: PRJEB37062 and ENA sample accession number: ERS12561802 for biotransformation under anaerobic condition. The drug concentrations were measured over 9 timepoints collected between 0 and 24 hours of incubation by liquid-chromatography-coupled mass spectrometry (LC–MS); note: call rule not given here
condition-set: 2 µM
experimental-endpoint: Bacterial Biotransformation

Consider the worked cases shown below.
compound	result
CCN(CC)CCNC(=O)c1cc(Cl)c(N)cc1OC [METOCLOPRAMIDE]	Compound NOT metabolized
CCCc1nc2c(C)cc(-c3nc4ccccc4n3C)cc2n1Cc1ccc(-c2ccccc2C(=O)O)cc1	Compound metabolized
Cc1ccc(-c2cc(C(F)(F)F)nn2-c2ccc(S(N)(=O)=O)cc2)cc1	Compound NOT metabolized
CC(C)(C)NC[C@H](O)COc1ccccc1C1CCCC1.CC(C)(C)NC[C@H](O)COc1ccccc1C1CCCC1.O=S(=O)(O)O [PENBUTOLOL SULFATE]	Compound metabolized
OC(Cn1cncn1)(Cn1cncn1)c1ccc(F)cc1F	Compound metabolized

State its Bacterial Biotransformation for this compound: Cc1cc2c(cc1S(N)(=O)=O)S(=O)(=O)CCC2
Compound NOT metabolized

State its Bacterial Biotransformation for this compound: COC(=O)C1=C(C)NC(C)=C(C(=O)OC(C)C)C1c1cccc2nonc12 (stereo not drawn)
Compound metabolized

----------
condition-set: human gut metagenome, 24 h, 2 µM
experimental-endpoint: Bacterial Biotransformation

Consider the worked cases shown below.
molecule	experimental-endpoint	result
Cc1cn([C@H]2C[C@H](N=[N+]=[N-])[C@@H](CO)O2)c(=O)[nH]c1=O	Bacterial Biotransformation	Compound NOT metabolized
OCCN1CCN(CCCN2c3ccccc3Sc3ccc(C(F)(F)F)cc32)CC1	Bacterial Biotransformation	Compound NOT metabolized
Cc1ccc(-c2nc3ccc(C)cn3c2CC(=O)N(C)C)cc1	Bacterial Biotransformation	Compound metabolized
CC(C)N(CCC(C(N)=O)(c1ccccc1)c1ccccn1)C(C)C.O=P(O)(O)O (configuration not stated) [DISOPYRAMIDE PHOSPHATE]	Bacterial Biotransformation	Compound NOT metabolized

State its Bacterial Biotransformation for this molecule: O=C1[C@H](CC[C@H](O)c2ccc(F)cc2)[C@@H](c2ccc(O)cc2)N1c1ccc(F)cc1
Compound NOT metabolized

State its Bacterial Biotransformation for this molecule: COc1cc2nc(N(C)CCCNC(=O)C3CCCO3)nc(N)c2cc1OC (configuration not stated)
Compound metabolized

State its Bacterial Biotransformation for this molecule: CN1CC(=O)N2[C@H](c3ccc4c(c3)OCO4)c3[nH]c4ccccc4c3C[C@@H]2C1=O
Compound metabolized

State its Bacterial Biotransformation for this molecule: Cc1ccnc2c1NC(=O)c1cccnc1N2C1CC1
Compound metabolized

State its Bacterial Biotransformation for this molecule: NC(CO)(CO)CO.O=C(c1ccccc1)c1ccc2n1CCC2C(=O)O (configuration not stated)
Compound metabolized

State its Bacterial Biotransformation for this molecule: CCCCc1nc(Cl)c(CO)n1Cc1ccc(-c2ccccc2-c2nn[nH]n2)cc1
Compound metabolized

State its Bacterial Biotransformation for this molecule: CCCC1O[C@@H]2C[C@H]3[C@@H]4CCC5=CC(=O)C=C[C@]5(C)[C@H]4[C@@H](O)C[C@]3(C)[C@]2(C(=O)CO)O1 (some centres not stated) [BUDESONIDE]
Compound metabolized

State its Bacterial Biotransformation for this molecule: CN(C)CCC=C1c2ccccc2C=Cc2ccccc21
Compound metabolized
